# Method Summary: Lethal dose of compound evaluated by administering intraperitoneally to female CRCD mice
# Format: toxicity, organism-based
# Assay Setup: mouse, in vivo, ip
Recorded Endpoint: LD50

As a guide, the following entries are already answered.
>>> print(df.to_string())
                                   compound  recorded_endpoint    result
0  CCCN(CC)CC(C(=O)Nc1ccc(OC)cc1C)N(CC)CCC (configuration not stated)               LD50  66 mg/kg
1  CCOc1ccccc1NC(=O)C(CN(C)CC)N(C)CC (configuration not stated)               LD50  94 mg/kg
2  CCN(CC)CC(C(=O)Nc1cc(C)ccc1OC)N(CC)CC (configuration not stated)               LD50  81 mg/kg

Please state, for each entry, its recorded LD50.
1. CCCN(CC)C(CC)C(=O)Nc1c(C)cccc1C (configuration not stated) [ETIDOCAINE]
2. CCN(CC)CC(C(=O)Nc1ccccc1OC)N(CC)CC (configuration not stated)
3. CCOc1ccccc1NC(=O)C(CN(CC)CC)N(CC)CC (configuration not stated)
4. CCN(CC)CC(C(=O)Nc1ccc(OC)cc1C)N(CC)CC (configuration not stated)

1. 56 mg/kg
2. 70 mg/kg
3. 81 mg/kg
4. 102 mg/kg

* * *

# Method Summary: Lethal dose of compound evaluated by administering intravenously to female CRCD mice
# Type: toxicity, organism-based
# Assay Setup: mouse, in vivo, iv
For each of the compounds below, state its LD50.
A bare number is not enough; add the unit after it.

>>> print(df.to_string())
                                   compound   result
0  CCCN(CC)C(CC)C(=O)Nc1c(C)cccc1C (centres undefined)  7 mg/kg

Please state, for each entry, its recorded LD50.
1. CCCN(CC)CC(C(=O)Nc1ccccc1OC)N(CC)CCC (centres undefined)
2. CCN(CC)CC(C(=O)Nc1cccc(OC)c1)N(CC)CC (centres undefined)
3. Cc1cccc(C)c1NC(=O)C(C)N (centres undefined) [TOCAINIDE]

1: 11 mg/kg; 2: 20 mg/kg; 3: 94 mg/kg
